The reported numbers originate from patent US20260200931A1.

METHOD: Pharmacokinetic assay in mice
Format: in vivo
EXPERIMENTAL_CONDITIONS: mouse; male Balb/c mice, plasma; table does not print the route (objective: oral administration, PO 5 mg/kg)
MEASURED_METRIC: AUC(0-inf) (ng·h/mL)
Numbers only here, please. The scale is ng·h/mL.

The compound identified as CCC(=O)N[C@@H]1CCCc2c(-c3ccc4c(c3)COC(=O)N4C)cncc21 registered its AUC(0-inf) at 20800

---

MEASURED_ON: human CYP11B1 (Homo sapiens)
Construct: The main elements of an expression plasmid include ORF of human CYP11B1 or human CYP11B2; expressed in transfected cells
Sequence (P15538 25-503): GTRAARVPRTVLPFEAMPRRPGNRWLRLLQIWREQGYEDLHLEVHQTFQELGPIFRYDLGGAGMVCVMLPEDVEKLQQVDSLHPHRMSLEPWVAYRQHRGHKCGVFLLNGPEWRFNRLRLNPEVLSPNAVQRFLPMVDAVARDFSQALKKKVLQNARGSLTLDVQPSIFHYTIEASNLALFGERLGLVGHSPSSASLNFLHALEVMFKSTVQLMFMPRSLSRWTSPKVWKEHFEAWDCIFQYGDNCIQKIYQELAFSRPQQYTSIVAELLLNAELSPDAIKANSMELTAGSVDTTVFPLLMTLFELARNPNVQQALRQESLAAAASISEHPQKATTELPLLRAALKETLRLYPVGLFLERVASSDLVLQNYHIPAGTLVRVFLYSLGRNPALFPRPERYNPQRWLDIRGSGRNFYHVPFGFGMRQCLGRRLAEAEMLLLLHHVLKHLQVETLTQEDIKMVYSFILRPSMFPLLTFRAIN
METHOD: G-402 cell enzyme experiment, human CYP11B1 (cortisol production, HTRF); selectivity of CYP11B2 over CYP11B1
Format: cell-based
EXPERIMENTAL_CONDITIONS: G-402 cells expressing human CYP11B1 or CYP11B2; selectivity for CYP11B2 over CYP11B1
MEASURED_METRIC: hsF (human selective factor: ratio of CYP11B1 EC50 to CYP11B2 EC50) (×)
Just the number in ×, nothing appended.

Reported hsF (human selective factor: ratio of CYP11B1 EC50 to CYP11B2 EC50) for CCC(=O)N[C@@H]1CCCc2c(-c3ccc4c(c3)OCC(=O)N4C)cncc21 [Example 2-A] was 174

Value of hsF (human selective factor: ratio of CYP11B1 EC50 to CYP11B2 EC50) reported for the compound CCC(=O)N[C@@H]1CCCc2c(-c3ccc4c(c3)COC(=O)N4C)cncc21 [Example 1-A] is 144

Reported hsF (human selective factor: ratio of CYP11B1 EC50 to CYP11B2 EC50) of CN1C(=O)OCc2cc(-c3cncc(C4=CCN(S(=O)(=O)C5CC5)CC4)c3)ccc21 [Example 68] : 394

---

METHOD: Pharmacokinetic assay in mice
Assay type: in vivo
EXPERIMENTAL_CONDITIONS: mouse; male Balb/c mice, plasma; table does not print the route (objective: oral administration, PO 5 mg/kg)
Source text: Balb/c mice were used as test animals to study the pharmacokinetic behavior of the compounds of the present disclosure in mice (plasma) after oral administration. Compounds of the present disclosure, made in house. 3 Balb/c mice per group, male; from Shanghai Bk Lab Animal Co., Ltd., with animal production license number (SCXK (Shanghai) 2013-0006 N0.311620400001794). […]
MEASURED_METRIC: Tmax (min)
Write down the numeric answer in min and omit the unit.

Tmax measured on CCC(=O)N[C@@H]1CCCc2c(-c3ccc4c(c3)COC(=O)N4C)cncc21 = 18

---

METHOD: Pharmacokinetic assay in mice
Assay type: in vivo
EXPERIMENTAL_CONDITIONS: mouse; male Balb/c mice, plasma; table does not print the route (objective: oral administration, PO 5 mg/kg)
MEASURED_METRIC: AUC(0-t) (ng·h/mL)
Entry rule: numbers only, all in ng·h/mL.

Value of AUC(0-t) reported for the molecule CCC(=O)N[C@@H]1CCCc2c(-c3ccc4c(c3)COC(=O)N4C)cncc21 [Example 1-A] is 20800

---

METHOD: Pharmacokinetic assay in mice
Type: in vivo
EXPERIMENTAL_CONDITIONS: mouse; male Balb/c mice, plasma; table does not print the route (objective: oral administration, PO 5 mg/kg); read-out: MRT0-∞
MEASURED_METRIC: MRT inf

Lab note: measured MRT inf of CCC(=O)N[C@@H]1CCCc2c(-c3ccc4c(c3)COC(=O)N4C)cncc21 was 4.7 h
